target: biotinylated human IL-17 (binding to IL17R/Fc) (Homo sapiens, UniProt Q16552); construct: 177-IR (IL17R/Fc); test: IL-17 competition ELISA II (captured IL17R/Fc, biotinylated IL-17)
Sequence (Q16552 20-155 limits assumed): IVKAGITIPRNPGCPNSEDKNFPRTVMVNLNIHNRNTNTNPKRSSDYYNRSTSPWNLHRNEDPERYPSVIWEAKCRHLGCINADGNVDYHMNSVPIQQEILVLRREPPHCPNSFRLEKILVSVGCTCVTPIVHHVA
experimental_endpoint: IC50

Field: example entries. Status: answers known.
| compound | IC50 |
| --- | --- |
| C[C@H]1NC(=O)[C@@H](Cc2ccc(NC(=O)[C@@H](NC(=O)Cc3ccc(N(C)C)cc3)C3CCCCC3)cc2)NC(=O)CC2(CCCC2)CC(=O)N(C)CCCCCN(C)C1=O [Compound 601] | < 100 nM |
| O=C1CC2(CCCC2)CC(=O)N[C@H](Cc2ccc(NC(=O)[C@H](Cc3ccccc3Cl)NC(=O)Cc3ccc(CO)cc3)cc2)C(=O)NCCCCN1 [Compound 393] | < 100 nM |

// next item, IC50 requested
Supply recorded IC50 for CN1C(=O)CC2(CCCC2)CC(=O)NCCCCC#CCNC(=O)[C@H]1Cc1ccc(NC(=O)[C@H](Cc2ccccc2Cl)NC(=O)C2(c3ccc(F)cc3)CC2)cc1 [Compound 498] here.
1000 to 10000 nM
